Source: patent US20200369765A1

System Name: T1, Human Siglec-9 mutant M5 (human, UniProt Q9Y336 18-463)
T1 construct: Expressed on HEK293T cells; also called Mutant 5
T1 sequence (Q9Y336 other isoform, or with tags, fused parts or gaps mutant): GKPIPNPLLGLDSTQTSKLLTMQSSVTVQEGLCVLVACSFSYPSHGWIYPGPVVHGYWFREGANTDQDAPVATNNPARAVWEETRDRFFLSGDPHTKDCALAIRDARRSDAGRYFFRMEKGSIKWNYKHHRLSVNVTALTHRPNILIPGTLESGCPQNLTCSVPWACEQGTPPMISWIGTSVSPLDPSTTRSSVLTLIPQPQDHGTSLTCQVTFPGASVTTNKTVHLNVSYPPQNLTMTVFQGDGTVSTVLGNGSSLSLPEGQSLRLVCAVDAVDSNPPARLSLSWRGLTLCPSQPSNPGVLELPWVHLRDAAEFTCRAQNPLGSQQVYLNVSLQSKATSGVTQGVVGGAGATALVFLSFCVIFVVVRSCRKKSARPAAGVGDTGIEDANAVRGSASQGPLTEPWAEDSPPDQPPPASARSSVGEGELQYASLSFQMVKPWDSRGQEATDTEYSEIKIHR
Protocol Notes: flow cytometry, HEK293T transfectants
Measure Name: binding result

mAb3 (antibody, human IgG1, V domains shown) VH: EVQLLETGPGLVKPSQSLSLTCTVTGYSITGGFAWNWIRQFPGNTLEWMGYIGYGGSTSYNPSLNSRISITRDTSKNHFFLQFNSVTTEDSATYYCARGDYLFAYWGQGTLVTVSA VL: DILMTQSPASLSASVGETVSITCRASGNIHNYLAWYLQRQGKSPQLLVYNAKTLADGVPSRFSGTGSGTQFSLKINSLQPEDFGSYYCQHFWSTPRTFGGGTKLEIK | binds
Fab.E (Fab of mAbE) (Fab, V domains shown) VH: DVQLVESGGGLVQPGGSRKLSCAASGFTFSTFGMHWVRQAPEKGLEWVAYISSGSNAIYYADTVKGRFTISRDNPKNTLFLQMTSLRSEDTAMYYCASPGYGAWFAYWGQGTLVTVSA VL: ENVLTQSPAIMSASPGEKVTMTCRASSSVSSAYLHWYQQKSGASPKLWIYSTSNLASGVPARFSGSGSGTSYSLTISSVEAEDAATYYCQQYSAYPYTFGGGTKLEIK | binds
